# protocol-details: Serum stability in human serum
# Type: in vitro ADME
# conditions-used: human serum (1:1 v/v with HEPES buffer), pH 7.8, 37 °C, read-out: Serum half-life time (converted)
Peptide text beside a SMILES is read from it. * marks the point of attachment. X3 = C=CC1=C(C)c2cc3[nH]c(cc4nc(cc5[nH]c(cc1n2)c(C)c5CCC(=O)O)C(CCC(=O)*)=C4C)c(C)c3C=C
endpoint-name: half-life at 0.05 mM (h)

INSERT INTO assay_data (compound, endpoint_name, readout_unit, reading) VALUES
  ('C=CC1=C(C)c2cc3[nH]c(cc4nc(cc5[nH]c(cc1n2)c(C)c5CCC(=O)O)C(CCC(=O)N[C@@H](CO)C(=O)NCC(=O)N[C@H](C(=O)N[C@@H](CCC(N)=O)C(=O)N[C@@H](CCC(=O)O)C(=O)N[C@@H](CCC(=O)O)C(=O)N[C@@H](Cc1ccc(O)cc1)C(N)=O)[C@@H](C)O)=C4C)c(C)c3C=C [PP-P3] (X3-SGTQEEY-NH2)', 'half-life at 0.05 mM', 'h', 3.7);
